Each recorded value in this set is attributed to patent US8334236B2.

Documented Herbicidal effect index, Echinochloa crus-galli across a set of compounds
System: Echinochloa crus-galli (L.) P. Beauv. var. crus-galli
Test: Test Example 3: herbicidal effects in farmland foliar treatment
Type: in vivo
Parameters: scale not given here
Conditions: 1000 g active ingredient per hectare, 14th day after treatment
When you answer, write just the number.

Illustrative cases are given below, each with its answer.
>  <COMPOUND>
CCSCn1c(=O)c(C(=O)C2=C(O)CCCC2=O)cc2cccnc21 [II-19]

>  <RECORDED MEASUREMENT>
5

$$$$
>  <COMPOUND>
COc1cccc(-n2c(=O)c(C(=O)C3=C(O)CCCC3=O)cc3cccnc32)c1 [II-55]

>  <RECORDED MEASUREMENT>
5

$$$$
>  <COMPOUND>
O=C1CCCC(O)=C1C(=O)c1ccc2ccccc2n1 [Comparative compound B, reference compound]

>  <RECORDED MEASUREMENT>
0

$$$$
>  <COMPOUND>
CCn1c(=O)c(C(=O)C2=C(O)CCCC2=O)cc2cccnc21 [II-3]

>  <RECORDED MEASUREMENT>
5

$$$$
>  <COMPOUND>
O=C1CCCC(O)=C1C(=O)c1cc2cccnc2n(Cc2ccccc2Cl)c1=O [II-28]

>  <RECORDED MEASUREMENT>
4

$$$$
>  <COMPOUND>
O=C1CCCC(O)=C1C(=O)c1cc2cccnc2n(-c2cccc(C(F)(F)F)c2)c1=O [II-52]

>  <RECORDED MEASUREMENT>
5

$$$$

Please fill in: Herbicidal effect index, Echinochloa crus-galli reported for CC1(C)CC(=O)C(C(=O)c2cnc3ccccc3n2)=C(O)C1 [Comparative compound C, reference compound] = 0
